system: A431; assay: whole-cell filipin (free cholesterol) integrated intensity, Z-score; higher = more cholesterol staining; settings: compound concentration in added solution (µM; 5 µl added to 20 µl cells): 10; 18 h
Where a name gives a salt, the structure may show the parent alone.
Kindly state whole-cell filipin (z-score) for each of the entries shown.
# answer = number (no unit)

Consider the compound CCCCC1(COC(=O)CCC(=O)O)C(=O)N(c2ccccc2)N(c2ccccc2)C1=O [Suxibuzone] tested on A431; state its whole-cell filipin (z-score). -0.0127

With A431 as the test system, provide measured whole-cell filipin (z-score) for this compound: Cc1cnc(C(=O)NCCc2ccc(S(=O)(=O)NC(=O)NC3CCCCC3)cc2)cn1 [Glipizide] -1.07

Output reported whole-cell filipin (z-score) of the compound CC1(C)S[C@@H]2[C@H](NC(=O)Cc3ccccc3)C(=O)N2[C@H]1C(=O)O [Benzylpenicillin sodium] on A431. -0.101

With A431 as the test system, provide measured whole-cell filipin (z-score) for this compound: CNC(=C[N+](=O)[O-])NCCSCc1ccc(CN(C)C)o1 [Ranitidine hydrochloride] -1.03

Would you please give the reported whole-cell filipin (z-score) of O=C(CCCN1CC=C(n2c(=O)[nH]c3ccccc32)CC1)c1ccc(F)cc1 [Droperidol] with A431? 0.378

Give whole-cell filipin (z-score) for this entry on A431: C[C@H](CCC(=O)O)[C@H]1CC[C@H]2[C@@H]3CC[C@@H]4C[C@H](O)CC[C@]4(C)[C@H]3CC[C@]12C [Lithocholic acid] -0.232

Send back A431 whole-cell filipin (z-score) of O=C1C(O)=C(O)C(=O)C(O)=C1O [Tetrahydroxy-1,4-quinone monohydrate] only. -0.203

Enter recorded whole-cell filipin (z-score) with A431 for Cn1cnc([N+](=O)[O-])c1Sc1ncnc2[nH]cnc12 [Azathioprine] here. -0.805

Recall the reported whole-cell filipin (z-score) of CN(C)CCCSC(=N)N [Dimaprit dihydrochloride] when tested on A431. -0.259

For A431, give the measured whole-cell filipin (z-score) of the entry O=c1[nH]cnc2c1ncn2[C@H]1CC[C@@H](CO)O1 [Didanosine] -1.2

Check A431 data and give whole-cell filipin (z-score) for CN1CCC(=C2c3ccccc3Sc3ccccc32)CC1 [Pimethixene maleate] . 0.776

State, for A431, measured whole-cell filipin (z-score) of the compound listed here: CC(=O)Nc1ccc(O)cc1 [Acetaminophen] -0.156

Provide whole-cell filipin (z-score), system A431, entry NS(=O)(=O)c1cc2c(cc1Cl)N=C(CSCc1ccccc1)NS2(=O)=O [Benzthiazide] -0.0125

Provide whole-cell filipin (z-score), recorded with A431, of CC1=Nc2ccc(Cl)cc2S(=O)(=O)N1 [Diazoxide] -0.801

Write whole-cell filipin (z-score) of Cc1nnc(SCC2=C(C(=O)O)N3C(=O)[C@@H](NC(=O)Cn4cnnn4)[C@H]3SC2)s1 [Cefazolin sodium salt] ; system used: A431 -0.424

For A431, give the measured whole-cell filipin (z-score) of the entry N[C@@H](Cc1cc(I)c(Oc2ccc(O)c(I)c2)c(I)c1)C(=O)O [Liothyronine] -0.411

Quote whole-cell filipin (z-score) with test system A431 for CN/C(=N\CCSCc1nc[nH]c1C)NC#N [Cimetidine] -0.5

With A431 as the test system, provide measured whole-cell filipin (z-score) for this compound: O=C(O)c1ccccc1Nc1cccc(C(F)(F)F)c1 [Flufenamic acid] -0.734

---

system: A431; experiment: filipin (cholesterol) integrated intensity within LBPA endosomes, Z-score; higher = more cholesterol in LBPA endosomes; details: compound concentration in added solution (µM; 5 µl added to 20 µl cells): 10; 18 h
Where a name gives a salt, the structure may show the parent alone.
Provide the recorded filipin (z-score) for the entries that follow.
Give your answer as a number; write no unit.

Please give measured filipin (z-score) of the following entry: C[C@H]1C[C@H]2[C@@H]3CCC4=CC(=O)C=C[C@]4(C)[C@@]3(F)[C@@H](O)C[C@]2(C)[C@@]1(O)C(=O)CO [Betamethasone] -0.536

Identify filipin (z-score) associated with the compound CC(C(=O)O)c1ccc2c(c1)[nH]c1ccc(Cl)cc12 (configuration not stated) [Carprofen] -0.398

// fetch filipin (z-score) given entry COc1ccc(-c2cc(=O)c3c(O)cc(O[C@@H]4O[C@H](CO[C@@H]5O[C@@H](C)[C@H](O)[C@@H](O)[C@H]5O)[C@@H](O)[C@H](O)[C@H]4O)cc3o2)cc1O [Diosmin] -0.518

Entry CCCc1nc(C)c2c(=O)nc(-c3cc(S(=O)(=O)N4CCN(CC)CC4)ccc3OCC)[nH]n12 [Vardenafil] needs its filipin (z-score) filled in; supply it. -0.156

Find the measured filipin (z-score) of CCCCC1(COC(=O)CCC(=O)O)C(=O)N(c2ccccc2)N(c2ccccc2)C1=O [Suxibuzone] and report it. -0.358

Tell me measured filipin (z-score) for Cc1cc(C)nc(NS(=O)(=O)c2ccc(N)cc2)n1 [Sulfamethazine sodium salt] please. -0.422

Hello, please tell me recorded filipin (z-score) for this one: Cc1cccc(C)c1NC(=O)C1CCCCN1C (configuration not stated) [Mepivacaine hydrochloride] -0.328

---

system: HeLa MZ; experiment: filipin (cholesterol) integrated intensity within LBPA endosomes, Z-score; higher = more cholesterol in LBPA endosomes; conditions: compound concentration in added solution (µM; 5 µl added to 20 µl cells): 10; 18 h
Where a name gives a salt, the structure may show the parent alone.
# cutoff -0.3 applies to filipin (z-score); >= gives label 1, < gives label 0

Tell me whether filipin (z-score) is at least -0.3 here: NC[C@@H]1O[C@@H](O[C@H]2[C@H](O)[C@@H](O[C@H]3O[C@H](CO)[C@@H](O)[C@H](N)[C@H]3O)[C@H](N)C[C@@H]2N)[C@@H](O)[C@H](O)[C@H]1O [Kanamycin A sulfate] label 0

Say whether CN(C)CCCSC(=N)N [Dimaprit dihydrochloride] shows filipin (z-score) of -0.3 or more. label 0

Does the compound Cc1c(N)c(=O)n(-c2ccccc2)n1C [Ampyrone] have recorded filipin (z-score) that is -0.3 or more? label 0

Test whether the compound CN1CCC[C@@H]1CCO[C@](C)(c1ccccc1)c1ccc(Cl)cc1 [Clemastine fumarate] records filipin (z-score) of -0.3 or higher. label 1

Reported filipin (z-score) reaches at least -0.3 for C=C(CC)C(=O)c1ccc(OCC(=O)O)c(Cl)c1Cl [Ethacrynic acid] ? label 0

Can O=C1NCCN1c1ncc([N+](=O)[O-])s1 [Niridazole] be said to have filipin (z-score) at or above -0.3? label 0

Textbook exercise: given the entry C[C@@H]1CN(c2c(F)c(N)c3c(=O)c(C(=O)O)cn(C4CC4)c3c2F)C[C@H](C)N1 [Sparfloxacin] , state whether its filipin (z-score) is greater than or equal to -0.3. label 1

Given Cc1ccccc1C(OCCN(C)C)c1ccccc1 (stereo not drawn) [Orphenadrine hydrochloride] , state whether its filipin (z-score) is at least -0.3. label 1

---

test system: A431; experiment: whole-cell filipin (free cholesterol) integrated intensity, Z-score; higher = more cholesterol staining; conditions: compound concentration in added solution (µM; 5 µl added to 20 µl cells): 10; 18 h
Kindly state whole-cell filipin (z-score) for each of the entries shown.
Answer with a bare number; do not write a unit.

Complete the entry with whole-cell filipin (z-score) for CC[C@H]1OC(=O)[C@H](C)[C@@H](O[C@H]2C[C@@](C)(OC)[C@@H](O)[C@H](C)O2)[C@H](C)[C@@H](O[C@@H]2O[C@H](C)C[C@H](N(C)C)[C@H]2O)[C@](C)(O)C[C@@H](C)CN(C)[C@H](C)[C@@H](O)[C@]1(C)O 0.331

Supply measured whole-cell filipin (z-score) of Cc1cc(=O)oc2cc(O)ccc12 in your reply. -0.674

Quickly give me recorded whole-cell filipin (z-score) for O=C1CCC(N2C(=O)c3ccccc3C2=O)C(=O)N1 (configuration not stated) [Thalidomide] -0.887

Give whole-cell filipin (z-score) for the following compound: O=C1C(CC[S+]([O-])c2ccccc2)C(=O)N(c2ccccc2)N1c1ccccc1 (configuration not stated) 0.303

For CCCC1O[C@@H]2C[C@H]3[C@@H]4CCC5=CC(=O)C=C[C@]5(C)[C@H]4[C@@H](O)C[C@]3(C)[C@]2(C(=O)CO)O1 (some centres not stated) [Budesonide] , write its whole-cell filipin (z-score). 0.452

Return whole-cell filipin (z-score) for the following compound: Clc1ccccc1C(c1ccccc1)(c1ccccc1)n1ccnc1 -0.0982

For Nc1nc(=O)[nH]cc1F , write its whole-cell filipin (z-score). -0.313

---

system: A431; assay: whole-cell filipin (free cholesterol) integrated intensity, Z-score; higher = more cholesterol staining; settings: compound concentration in added solution (µM; 5 µl added to 20 µl cells): 10; 18 h
readout: whole-cell filipin (z-score)
Give only the figure.

Output whole-cell filipin (z-score) of CC[C@H](C)[C@H](N)C1=N[C@H](C(=O)N[C@@H](CC(C)C)C(=O)N[C@H](CCC(=O)O)C(=O)N[C@H](C(=O)N[C@H]2CCCCNC(=O)[C@H](CC(N)=O)NC(=O)[C@@H](CC(=O)O)NC(=O)[C@H](Cc3cnc[nH]3)NC(=O)[C@@H](Cc3ccccc3)NC(=O)[C@H]([C@@H](C)CC)NC(=O)[C@@H](CCCN)NC2=O)[C@@H](C)CC)CS1 -0.0253

Indicate its recorded whole-cell filipin (z-score); the molecule in question is Nc1ccc(S(=O)(=O)c2ccc(N)cc2)cc1 -0.45

From: the supplement of paper PMC6607015
